Test: E. coli DRC41 culture turbidity changes, primary screen, E. coli filamentation inducer project, strain DRC41, OD650, 48 h (AID 1152);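 also: E. coli MC1000 strain DRC41 lacking acrAB efflux pump and sulA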
Conditions: E. coli DRC41 (acrAB sulA), higher = more signal, called active from +8 up or from −8 down
Active and inactive are the calls of the source.
measurement_name: z-score

For each of the items listed, what is its z-score?
1. CO[C@H]1COC(=O)[C@@H](C)COC(=O)[C@H](C)NC(=O)CC=C[C@H]1C
2. Cc1ccc(S(=O)(=O)n2c3ccccc3c3nnc(C(=O)c4ccccc4)nc32)cc1

Ans:
["-0.0819 (inactive)", "1.04 (inactive)"]

* * *

Target: Calmodulin-1 (Homo sapiens) (UniProt P0DP23)
Experiment: calcium-bound CALM1 binders on microarrays, profiling panel, artefact control for SMM control-protein annotation, biochemical, small-molecule microarray, Cy5-labelled CALM1, plus calcium (AID 1112);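 also: score merges spot fluorescence with signal to noise from triplicate slides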
Details: Cy5-CALM1 binding fluorescence, higher = more signal
measurement_name: composite z-score
One number for each entry.

CO[C@H]1COC(=O)[C@@H](C)COC(=O)[C@H](C)NC(=O)CC=C[C@H]1C | -1.98

For each of the items listed, what is its composite z-score?
1. O=C1C[C@@H](O)[C@@H](O)[C@@H]2[C@@H]3C(=O)N(Cc4ccc5c(c4)OCO5)C(=O)[C@@H]3CC[C@H]12
2. O=C1[C@H]2[C@H]3[C@H](O)[C@H](O)CC(=NOCc4ccccc4)[C@@H]3CC[C@H]2C(=O)N1C[C@@H]1CCCO1
3. COc1cccc([C@H]2Oc3ccc(OC)cc3C(=NOC[C@@H](C)[C@H](OCc3ccccc3)C(C)C)[C@@H]2O)c1
4. O=C1CCCC(C2=CCCCC2=O)C1 (stereo not drawn)
5. CO[C@@H]1COC(=O)[C@@H](C)COC(=O)[C@@H](C)NC(=O)CC=C[C@@H]1C

Ans:
-0.646
-0.0696
0.619
-1.38
-2.06

For each of the items listed, what is its composite z-score?
1. CCOC(=O)[C@H](CC(C)C)NC(=O)CCC1CC(OC(=O)NCc2ccc3c(c2)OCO3)CC2(CCCC(COC(=O)NCC3CCCCC3)O2)O1 (stereo partly drawn)
2. CCOC(=O)[C@H](CC(C)C)NC(=O)CCC1CC(OC(=O)NCc2cccc3ccccc23)CC2(CCCC(COC(=O)NCc3ccncc3)O2)O1 (stereo partly drawn)

Ans:
1. -0.381
2. -0.376

The reported measurements were obtained from PubChem BioAssay.
